# Experiment Summary: Half life in human
# Assay type: ADME, organism-based
# Measurement Conditions: in vivo
Value Kind: half-life (h)
Response body: numeric value in h, unit text excluded.

# Compound, Unit Tag, Reading
rows = [
    ("COc1ccc2cc(-c3cc(-c4cc(Cl)cc(Cl)c4)nn3[C@@H](C)c3ccc(C(=O)NCCC(=O)O)cc3)ccc2c1 [MK-0893]", "h", 60),
]

In the following, a different compound is considered.
Name the reported half-life value associated with the compound CCC[C@H](c1ccc(C(=O)NCCC(=O)O)cc1)[C@H](c1ccc(Cl)cc1)c1c[nH]c2c(F)cc(C)cc12 [MK-3577]
4

---

# System: Glucagon receptor (Homo sapiens)
# Experiment Summary: Antagonist activity at human glucagon receptor expressed in HEK293 cell membranes assessed as inhibition of glucagon-stimulated intracellular cAMP formation preincubated for 30 mins followed by glucagon stimulation measured after 5 mins by TR-FRET analysis
# Assay type: functional, cell-based
Value Kind: IC50 (nM)
// units = nM; emit number, no label

# Compound Structure String, Unit Tag, IC50
measured = [
    ("Cc1cc(C(F)(F)F)ccc1-c1ccc(NCc2ccc(C(F)(F)F)cc2-c2ccc(C(=O)NCCC(=O)O)nc2)cc1Cl", "nM", 22),
]

Kindly review the next compound as well.
Name the reported IC50 value associated with the compound Cc1cc(Cl)ccc1-c1ccc(NCc2cc(Cl)cc(C(F)(F)F)c2-c2ccc(C(=O)NCCC(=O)O)nc2)cc1
4

---

List of pIC50 values.
# System: UniProt:P47871
# Experiment Summary: Antagonist activity at recombinant human glucagon receptor expressed in CHO cells assessed as inhibition of glucagon-stimulated intracellular cAMP formation preincubated for 30 mins followed by glucagon stimulation measured after 45 mins by LANCE assay
# Format: functional, cell-based
Would you please state pIC50, meaning minus log10 of the concentration in mol/L, as a bare number?

# Compound, pIC50
rows = [
    ("CC(C)(C)CC[C@H](c1ccc(C(=O)NCCC(=O)O)cc1)N1C(=O)C(c2cccc(F)c2)=NC12CCC([Si](C)(C)C)CC2 (some centres not stated)", 7.66),
]

// next item, pIC50 requested
Which pIC50 is reported for this compound? CC(C)(C)CCOc1cccc(C2=NC3(CCC(C(C)(C)C)CC3)N([C@H](CCC(C)(C)C)c3ccc(C(=O)NCc4nn[nH]n4)cc3)C2=O)c1 (some centres not stated)
7.21

---

# System: Glucagon receptor (Homo sapiens)
# Experiment Summary: Antagonist activity at human glucagon receptor expressed in CHOK1 cells assessed as inhibition of glucagon-stimulated intracellular cAMP formation preincubated for 20 mins followed by glucagon stimulation measured after 30 mins by fluorescent plate reader analysis
# Assay type: functional, cell-based
# Measurement Conditions: CHO-K1
Measured Kb accompanies every entry in the list below.
Give a bare numeral; the unit nM is implied.

The following compounds have reported results that may help.
# Compound, Unit Tag, Reading
measured = [
    ("CC1(C)CC(C(Nc2cnc(-n3cc(C(F)(F)F)cn3)nc2)c2ccc(C(=O)NCCC(=O)O)cc2)C1 (racemic)", "nM", 19),
    ("CCC[C@H](Nc1ccc(-n2cc(-c3ccccc3)cn2)cc1)c1ccc(C(=O)NCCC(=O)O)cc1", "nM", 9.5),
    ("Cc1cc2ccccc2nc1NC(c1ccc(C(=O)NCCC(=O)O)cc1)C1CC(C)(C)C1 (centres undefined)", "nM", 23),
]

Sample Cc1cc2cc(F)ccc2nc1NC(c1ccc(C(=O)NCCC(=O)O)cc1)C1CC(C)(C)C1 (centres undefined) — what was its Kb?
33

---

# System: Glucagon receptor (Homo sapiens, UniProt P47871)
# Sequence (P47871 whole entry): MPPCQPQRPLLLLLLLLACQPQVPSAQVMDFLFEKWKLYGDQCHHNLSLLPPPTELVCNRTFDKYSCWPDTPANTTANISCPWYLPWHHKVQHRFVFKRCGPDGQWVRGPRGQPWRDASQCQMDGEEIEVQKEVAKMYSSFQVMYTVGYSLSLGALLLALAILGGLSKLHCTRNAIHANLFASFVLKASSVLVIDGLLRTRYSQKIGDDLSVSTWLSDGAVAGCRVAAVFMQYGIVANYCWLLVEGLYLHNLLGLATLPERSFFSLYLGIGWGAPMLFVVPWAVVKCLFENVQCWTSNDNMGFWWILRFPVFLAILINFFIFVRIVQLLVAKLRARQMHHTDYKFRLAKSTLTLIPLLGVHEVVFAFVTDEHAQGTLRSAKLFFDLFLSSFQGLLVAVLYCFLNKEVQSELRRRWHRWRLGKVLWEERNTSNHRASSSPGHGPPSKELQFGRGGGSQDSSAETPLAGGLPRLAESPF
# Experiment Summary: Displacement of [125I]-glucagon from full length human glucagon receptor expressed in HEK293 cell membranes after 2 hrs by scintillation counting analysis
Value Kind: Ki (nM)
Output spec: scalar in nM, unitless text.

# Compound Structure String, Unit Tag, Ki
rows = [
    ("Cc1cc(C(F)(F)F)ccc1-c1ccc(NCc2ccc(C(F)(F)F)cc2-c2ccc(C(=O)NCCC(=O)O)nc2)cc1Cl", "nM", 17),
    ("Cc1cc(C(F)(F)F)ccc1-c1ccc(NCc2cc(C(C)C)cc(C(F)(F)F)c2-c2ccc(C(=O)NCCC(=O)O)cc2)cc1Cl", "nM", 30),
]

Continue with the compound presented below.
Requested field: Ki. Item: Cc1cc(Cl)ccc1-c1ccc(NCc2cc(Cl)cc(C(F)(F)F)c2-c2ccc(C(=O)NCCC(=O)O)nc2)cc1
20
